molecular target: Pfs48/45 D1-2 (Plasmodium falciparum 3D7, UniProt Q8I6T1); assay: ELISA; conditions: both partners purified
Sequence (Q8I6T1 28-289): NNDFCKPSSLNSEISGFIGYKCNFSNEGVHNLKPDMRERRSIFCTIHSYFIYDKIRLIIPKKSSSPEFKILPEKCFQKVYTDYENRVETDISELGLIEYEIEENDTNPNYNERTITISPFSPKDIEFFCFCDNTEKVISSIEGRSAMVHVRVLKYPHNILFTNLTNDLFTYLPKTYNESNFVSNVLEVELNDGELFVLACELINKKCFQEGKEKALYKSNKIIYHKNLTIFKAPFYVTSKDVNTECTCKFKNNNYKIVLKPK

BINDER	binding result
RUPA-164 (antibody, V domains shown, human IgG1; source: recombinant human IgG1, 293T (Protein A purified) or GenScript) VH: QVQLQESGPGLVKPSETLSLTCSVSGGSMTSFYWSWIRQPPGKGLEWIGYVYYNGTTNYKPSLKSRVTISVDMSKNQVSLKLSSVTAADTAVYYCARDRVVGSYYYGMDVWGQGTTVTVSS VL: EIVLTQPPVSLSLSPGEGATLSCRASQSVSSSYLAWYQQKPGQAPRLLMYSASRRATGIPDRFTGSGSGTDFTLTISRLEPEDFALYYCQHYGGSPRETFGQGTKVEIK	binds
RUPA-147 (antibody, V domains shown, human IgG1; source: recombinant human IgG1, 293T (Protein A purified) or GenScript) VH: QVQLVQSGAEVKKPGASVKVSCTASGYNFLTHDISWVRQATGQGLEWMGWMNPNTGKKGYVQKFQGRVTMDRDMSKSTAYMELRSLTSEDTAVYYCVRGVGSYYGSGGWFDPWGQGTLVTVSS VL: QSVLTQPPSASETPGQKVTISCSGSSSNIGSDTVSWYVQLPGTAPKLLIYNDNQRPSRVPDRFSGSKSGTSASLAISGLQSEDEADYYCATWDASLKRRVFGGGTTLTVL	binds

src = paper PMC9942873
